measurement-description: Aqueous solubility of the compound at pH at 7 by HPLC analysis
Assay type: physicochemical
condition-details: buffer, pH 7; read-out: solubility
measurement-label: solubility

I'd like to know its solubility. The compound in question is Cc1cc(C#N)cc(C)c1Oc1nc(Nc2ccc(C#N)cc2)nc(N)c1Br
< 1 µg/mL

---

measurement-description: Protein binding in rat plasma at 2 uM after 5 hrs by LC/MS analysis
Assay type: ADME, cell-free
condition-details: read-out: PPB (converted)
measurement-label: fraction unbound at 5 h, 2 µM
One number for each entry.

I'd like to know its fraction unbound at 5 h, 2 µM. The molecule in question is Cc1cc(C#N)cc(C)c1Oc1nc(NC2CCN(Cc3ccc(C(N)=O)cc3)CC2)nc2c1COC2
0.082
